Measured GI50 of individual entries
Tested on: SR leukemia
METHOD_DESCRIPTION: NCI tumour cell line growth inhibition, 48 h

For orientation, consider the following solved cases.
>>> reported_value("CC(C)=CC1=C2C3=C(C(=O)C4(O)Oc5c(C)c6c7c(c5OC24C)[C@@H](C)CC[C@@H]7[C@@H](C)C[C@H]6C=C(C)C)C(C)CCC3C(C)C1 (stereo partly drawn)")
"> 100000 nM"
>>> reported_value("Cc1cnc(C(=O)NNc2nc3sc4c(c3c(=O)n2C)C(C)CCC4)cn1 (stereo not drawn)")
"237 nM"
>>> reported_value("C=C1CC2(OC1=O)C(=O)Nc1ccccc12 (stereo not drawn)")
"1320 nM"
>>> reported_value("COC(=O)CC[C@H](Cc1ccccc1)NC(=O)c1csc([C@@H](C[C@H](C(C)C)N(C)C(=O)[C@@H](NC(=O)[C@H]2CCCCN2C)C(C)C)OC(C)=O)n1")
"< 2.5 nM"
>>> reported_value("O=C1C[C@@H]2/C(=C(O)\\C=C\\c3ccccc3)C(=O)C=C[C@@H]2O1")
"464 nM"

[ask] Check the records and state GI50 for COc1cc(C2CC(c3ccc(Nc4ccnc5cc(Cl)ccc45)cc3)=NN2c2ccc(Cl)cc2)cc(OC)c1OC (stereo not drawn)
[reply] 1200 nM

[ask] For the compound COc1ccc2c(c1)C(=O)c1c-2n(CCCI)c(=O)c2cc([N+](=O)[O-])ccc12 , give its measured GI50 value.
[reply] 5 nM

[ask] Identify measured GI50 corresponding to CN(C)c1ccc(/C=C/c2cc[n+](C)c(/C=C/c3ccc(N(C)C)cc3)c2)cc1
[reply] 309 nM

###

System: CAKI-1 renal
METHOD_DESCRIPTION: NCI tumour cell line growth inhibition, 48 h; in the data active means GI50 below about 0.43 µM; inactive means the rest
Answer with one of the outcomes given here: TRUE = active, FALSE = inactive

Previously resolved entries follow.
>>> class_assignment("COc1cc(-c2nc(SCCC(C)C)nc(Nc3ccc(S(N)(=O)=O)cc3)c2C#N)cc(OC)c1OC")
"FALSE"
>>> class_assignment("O=C1C(=O)c2cccnc2-c2ncccc21")
"FALSE"
>>> class_assignment("C[N+]1=C(/C=C\\C=C\\c2ccccc2)C(C)(C)c2ccccc21")
"FALSE"
>>> class_assignment("CCN(CC)c1ccc(C(=O)c2ccc(N(CC)CC)cc2)cc1")
"TRUE"

Here's the next entry for you.
[ask] Each compound tested received a call. Report the one for Cc1cc(N2CCOCC2)cc2[nH]c(-c3c(NC[C@@H](O)c4cccc(Cl)c4)cc[nH]c3=O)nc12 .
[reply] FALSE

###

Tested on: SN12C renal
METHOD_DESCRIPTION: NCI tumour cell line growth inhibition, 48 h
QUANTITY: TGI (µM)
Express it in µM; write the number only.

[ask] Indicate the recorded TGI value for this molecule: CCN1CCN(CC(=O)N2c3cccc4cccc(c34)N(C(=O)CN3CCN(CC)CC3)C2c2cn(-c3ccccc3)nc2-c2cccc([N+](=O)[O-])c2)CC1
[reply] 3.01

[ask] Report measured TGI; entry is CC(C)/C(Cl)=N\OC(=O)Nc1cccc(Cl)c1
[reply] 32.4

[ask] Determine from records and report TGI for Cc1cnc(C(=O)NNc2nc3sc4c(c3c(=O)n2C)C(C)CCC4)cn1 (stereo not given)
[reply] 4.55

[ask] Let me know recorded TGI for N#CC1(C#N)C(C#N)(C#N)C12CCCCCC2 , thanks.
[reply] 33.7

###

System: EKVX NSCLC
METHOD_DESCRIPTION: NCI tumour cell line growth inhibition, 48 h
QUANTITY: TGI

>>> reported_value("O=[N+]([O-])c1ccc(N/N=C/c2ccc(OCCCCCCCCCCCO)cc2)c([N+](=O)[O-])c1")
"52.1 µM"

[ask] Tell me measured TGI for Clc1ccc(C(n2cc(Br)cn2)n2cc(Br)cn2)cc1 please.
[reply] 38.9 µM

[ask] Note down TGI recorded for COC(=O)Nc1nc2ccc(Br)cc2[nH]1
[reply] > 100 µM

[ask] Fill in reported TGI for this entry: O=C(NC12CC3CC(CC(C3)C1)C2)C(=O)c1c[nH]c2ccccc12
[reply] 32.2 µM

[ask] Quote TGI reported for NC(N)=NS(=O)(=O)c1ccc(NCCc2c3ccccc3nc3ccccc23)cc1 please.
[reply] > 100 µM

###

Recorded TGI values for a group of molecules are listed next.
System: HOP-62 NSCLC
METHOD_DESCRIPTION: NCI tumour cell line growth inhibition, 48 h
Quick note: give the figure in µM, leave out the unit.

Below: 3 molecules and their reported TGI.
>>> reported_value("COc1ccc(C(=O)/C=C/c2cc(O)c(O)c(F)c2F)c(OC)c1")
92.7
>>> reported_value("CCN(CC)c1ccc(C(=O)c2ccc(N(CC)CC)cc2)cc1")
98.2
>>> reported_value("Cc1ncc(C(=O)Nc2ccc(CN3CCN(C)CC3)c(C(F)(F)F)c2)cc1C#Cc1cnc(N)cc1C#N")
2.91

// next entry
[ask] Retrieve TGI measured for O=c1c(-c2ccccc2)coc2cc(OC/C(=N/O)c3ccccc3)ccc12 and print it.
[reply] 51.3

###

Test system: MDA-MB-231 breast
METHOD_DESCRIPTION: NCI tumour cell line growth inhibition, 48 h; in the data active means GI50 below about 0.43 µM; inactive means the rest
Use one of these outcomes when replying: active, inactive

Use these answered entries as a reference point.
>>> class_assignment("O=c1c(-c2ccccc2)coc2cc(OC/C(=N/O)c3ccccc3)ccc12")
"inactive"
>>> class_assignment("CCOC(=O)c1c2c(n3ccccc13)C(=O)c1ncccc1C2=O")
"inactive"
>>> class_assignment("O=C1C(=O)c2cccnc2-c2ncccc21")
"active"

Then this molecule:
[ask] Entry CCNC(=O)O[C@H]1CN[C@H](C#Cc2cc3ncnc(Nc4ccc(OCc5cccc(F)c5)c(Cl)c4)c3s2)C1 : call = ?
[reply] inactive

###

Test system: SF-539 CNS
METHOD_DESCRIPTION: NCI tumour cell line growth inhibition, 48 h
# reported TGI; entries follow

The examples below pair each entry with its known result.
>>> reported_value("CC(C(O)c1ccccc1)C(O)(C(F)(F)F)C(F)(F)F (stereo unspecified)")
"> 100 µM"
>>> reported_value("O=C(O)C1CC(O)CN1 (stereo unspecified)")
"> 100 µM"
>>> reported_value("CC(=O)OCc1cc2ccccc2nc1C(Br)(Br)Br")
"38.2 µM"
>>> reported_value("CC1(C)OCC=CCO1")
"> 100 µM"
>>> reported_value("COc1cc(CNNC(N)=S)cc(OC)c1OC")
"> 100 µM"
>>> reported_value("Cc1cccc(C)c1NC(=O)C(=O)Nn1c(NN)nc2ccccc2c1=O")
"> 100 µM"

[ask] Tell me TGI of NC(N)=NS(=O)(=O)c1ccc(NCCc2c3ccccc3nc3ccccc23)cc1 when tested on SF-539 CNS.
[reply] > 100 µM

[ask] Consider the compound C=C(Br)CNC(=O)CCC(=O)NCC(=C)Br tested on SF-539 CNS; state its TGI.
[reply] > 100 µM

[ask] Report measured TGI on SF-539 CNS; entry: Cn1cc(-c2ccc(-c3ccc(C4=NC5(CC5)C(=O)N4C[C@@H]4CCN(C(=O)C5CC5)C4)cc3)cc2)cn1
[reply] 32.1 µM

[ask] Print SF-539 CNS TGI for COC(=O)C1(C)C=CC(=O)C2(C)C1C(O)C1OC3CC(c4ccoc4)C(C)=C3C1(C)C2CC(=O)O (stereo unspecified) .
[reply] > 100 µM

[ask] Give TGI for this entry on SF-539 CNS: CCOC(=O)c1c(N2CCOCC2)[nH]c(=O)c(C(c2ccco2)c2c(O)c(C(=O)OCC)c(N3CCOCC3)[nH]c2=O)c1O
[reply] > 100 µM

###

Test system: HOP-62 NSCLC
METHOD_DESCRIPTION: NCI tumour cell line growth inhibition, 48 h
QUANTITY: TGI

>>> reported_value("O=C(OC[C@H]1O[C@H](OC(=O)c2cc(O)c(O)c(OC(=O)c3cc(O)c(O)c(O)c3)c2)[C@H](OC(=O)c2cc(O)c(O)c(OC(=O)c3cc(O)c(O)c(O)c3)c2)[C@@H](OC(=O)c2cc(O)c(O)c(OC(=O)c3cc(O)c(O)c(O)c3)c2)[C@@H]1OC(=O)c1cc(O)c(O)c(OC(=O)c2cc(O)c(O)c(O)c2)c1)c1cc(O)c(O)c(OC(=O)c2cc(O)c(O)c(O)c2)c1")
"> 25 µM"
>>> reported_value("O=C(O)CN1C(=O)C(Cc2ccc(O)cc2)N=C(c2cccc(O)c2)c2ccccc21 (stereo not drawn)")
"> 100 µM"
>>> reported_value("COc1ccccc1NC(=O)CC(=O)N/N=C/c1ccc(N(CCC#N)S(=O)(=O)c2ccccc2)cc1")
"> 100 µM"
>>> reported_value("Cc1cc(S(=O)(=O)Nc2nc3ccccc3c(=O)n2N)c(S)cc1Cl")
"79.7 µM"
>>> reported_value("O=C(NCCCCCCNC(=O)c1cc(-c2ccccc2)nc2ccccc12)c1cc(-c2ccccc2)nc2ccccc12")
"> 100 µM"
>>> reported_value("O=C1C(=Cc2c(O)cc(O)cc2O)C(=O)c2ccccc21")
"> 100 µM"
>>> reported_value("CCN1CCN(CC(=O)N2c3cccc4cccc(c34)N(C(=O)CN3CCN(CC)CC3)C2c2cn(-c3ccccc3)nc2-c2cccc([N+](=O)[O-])c2)CC1")
"3.28 µM"
>>> reported_value("O=C(Nc1nc(C23CC4CC(CC(C4)C2)C3)cs1)c1cc2ccccc2oc1=O")
"> 100 µM"
>>> reported_value("Cc1nc2c(=O)n(C)ncc2[nH]1")
"> 100 µM"
>>> reported_value("C#CCOc1cccc(Nc2ncnc3cc(NC(=O)CCl)ccc23)c1")
"28.8 µM"

[ask] Recall the reported TGI of Cn1c2ccccc2c(=O)c2cccc(C(=O)NC(CCC(N)=O)C(=O)O)c21 (stereo not drawn) on HOP-62 NSCLC and write it down.
[reply] > 100 µM

[ask] Consider the compound CN1C(=O)C2C(C1=O)C1(O)c3ccccc3C2(N)c2ccccc21 (stereo not drawn) tested on HOP-62 NSCLC; state its TGI.
[reply] > 100 µM

Cited source: PubChem BioAssay (NCI)
